Recorded CDMF75 IC15, one value per entry.
# targetEntity: bovine cardiac myofibrils (full-length cardiac myosin ATPase in the native sarcomere) (Bos taurus (Bovine), UniProt Q9BE39)
# Sequence (Q9BE39 whole entry): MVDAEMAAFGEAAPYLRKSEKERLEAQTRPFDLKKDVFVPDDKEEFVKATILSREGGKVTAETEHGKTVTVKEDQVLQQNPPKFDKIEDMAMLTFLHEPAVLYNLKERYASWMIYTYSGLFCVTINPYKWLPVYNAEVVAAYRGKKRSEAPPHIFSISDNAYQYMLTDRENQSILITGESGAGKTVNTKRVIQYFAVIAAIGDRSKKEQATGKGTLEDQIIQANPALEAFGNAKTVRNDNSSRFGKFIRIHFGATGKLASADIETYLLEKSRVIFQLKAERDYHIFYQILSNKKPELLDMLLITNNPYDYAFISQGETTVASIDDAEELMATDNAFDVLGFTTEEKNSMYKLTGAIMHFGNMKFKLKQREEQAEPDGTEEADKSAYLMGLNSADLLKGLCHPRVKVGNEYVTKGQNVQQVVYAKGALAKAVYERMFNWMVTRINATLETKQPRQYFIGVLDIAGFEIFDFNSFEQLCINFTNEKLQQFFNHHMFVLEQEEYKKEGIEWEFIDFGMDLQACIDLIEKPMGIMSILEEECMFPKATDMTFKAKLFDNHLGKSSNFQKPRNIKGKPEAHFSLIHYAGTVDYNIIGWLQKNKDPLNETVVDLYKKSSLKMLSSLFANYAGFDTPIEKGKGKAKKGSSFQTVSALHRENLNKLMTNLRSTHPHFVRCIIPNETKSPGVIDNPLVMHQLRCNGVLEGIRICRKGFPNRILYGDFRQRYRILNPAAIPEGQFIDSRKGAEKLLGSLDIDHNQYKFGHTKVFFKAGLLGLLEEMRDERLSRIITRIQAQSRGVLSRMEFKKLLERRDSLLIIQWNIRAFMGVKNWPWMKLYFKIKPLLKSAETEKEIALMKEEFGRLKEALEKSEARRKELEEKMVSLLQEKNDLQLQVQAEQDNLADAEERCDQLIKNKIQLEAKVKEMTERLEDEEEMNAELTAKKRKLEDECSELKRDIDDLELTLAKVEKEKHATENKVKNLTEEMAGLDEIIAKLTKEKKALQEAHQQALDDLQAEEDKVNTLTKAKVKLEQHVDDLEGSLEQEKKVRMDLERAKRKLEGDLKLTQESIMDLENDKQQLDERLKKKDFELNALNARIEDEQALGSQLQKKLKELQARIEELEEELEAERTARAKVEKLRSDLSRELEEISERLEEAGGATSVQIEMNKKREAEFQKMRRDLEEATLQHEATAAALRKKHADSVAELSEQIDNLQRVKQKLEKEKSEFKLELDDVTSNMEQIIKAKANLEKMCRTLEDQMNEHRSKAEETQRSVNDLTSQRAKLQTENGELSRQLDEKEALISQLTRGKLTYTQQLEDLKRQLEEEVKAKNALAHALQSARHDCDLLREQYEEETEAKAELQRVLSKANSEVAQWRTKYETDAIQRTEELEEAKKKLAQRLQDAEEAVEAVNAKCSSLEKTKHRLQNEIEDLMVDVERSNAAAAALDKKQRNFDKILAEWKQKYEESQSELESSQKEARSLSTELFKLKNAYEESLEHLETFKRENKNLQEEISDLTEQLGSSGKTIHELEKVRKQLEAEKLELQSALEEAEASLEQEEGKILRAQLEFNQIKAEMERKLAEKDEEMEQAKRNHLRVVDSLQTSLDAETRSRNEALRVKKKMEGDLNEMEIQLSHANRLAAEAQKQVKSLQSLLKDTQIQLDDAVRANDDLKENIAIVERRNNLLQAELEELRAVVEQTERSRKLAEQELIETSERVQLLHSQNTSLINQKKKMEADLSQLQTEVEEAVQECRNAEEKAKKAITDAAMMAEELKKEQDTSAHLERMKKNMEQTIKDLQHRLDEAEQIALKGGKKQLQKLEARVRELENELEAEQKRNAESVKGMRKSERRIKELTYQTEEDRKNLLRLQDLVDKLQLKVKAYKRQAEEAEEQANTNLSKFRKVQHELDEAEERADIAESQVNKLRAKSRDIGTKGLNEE
# Sequence (P85100 whole entry partner): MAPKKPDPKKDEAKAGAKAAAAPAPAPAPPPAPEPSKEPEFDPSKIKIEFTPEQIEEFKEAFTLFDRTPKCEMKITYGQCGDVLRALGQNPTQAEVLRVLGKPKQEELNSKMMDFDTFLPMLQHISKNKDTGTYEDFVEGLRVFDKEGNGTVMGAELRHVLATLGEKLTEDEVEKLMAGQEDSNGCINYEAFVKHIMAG
# Sequence (Q3SZE5 whole entry partner): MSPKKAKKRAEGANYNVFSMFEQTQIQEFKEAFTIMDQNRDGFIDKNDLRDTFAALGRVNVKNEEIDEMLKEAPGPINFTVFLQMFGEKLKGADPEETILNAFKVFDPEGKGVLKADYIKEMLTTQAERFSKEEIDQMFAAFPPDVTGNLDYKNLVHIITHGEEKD
# protocolSummary: Skinned bovine cardiac myofibril ATPase assay (PK/LDH-coupled)
# Format: biochemical
# measurementConditions: Ca2+ activating to 75% of maximal rate, concentration giving 15% inhibition

compound: CCc1nc(-c2ccc3c(c2)CCC3C(=O)Nc2cnn(C)c2)no1 (stereo not drawn)
CDMF75 IC15, nM: 3900
//
compound: COCc1nc(-c2ccc3c(c2)CC[C@H]3NC(=O)c2cccc(CO)c2)no1 [Compound 669]
CDMF75 IC15, nM: 500
//
compound: Cn1nccc1C(=O)N[C@@H]1CCc2cc(-c3noc(C4(C)CC4)n3)ccc21
CDMF75 IC15, nM: 400
//
compound: Cc1ncc(C(=O)N[C@@H]2CCc3cc(-c4noc(C(F)F)n4)ccc32)s1
CDMF75 IC15, nM: 500
//
compound: CCc1nc(-c2ccc3c(c2)CC[C@H]3NC(=O)c2cnn(C)c2C)no1 [Compound 571]
CDMF75 IC15, nM: 400
//
compound: [2H]C([2H])([2H])C(=O)N[C@@H]1COc2cc(-c3noc(C(F)F)n3)ccc21
CDMF75 IC15, nM: 1800
//
compound: Cc1nocc1C(=O)NC1CCc2cc(-c3noc(C(F)F)n3)ccc21 (stereo not drawn)
CDMF75 IC15, nM: 500
//
compound: CCc1nc(-c2ccc3c(c2)CC[C@H]3NC(=O)c2cc(CO)ccn2)no1
CDMF75 IC15, nM: 500
//
compound: CCn1nccc1C(=O)NC1CCc2cc(-c3noc(C)n3)ccc21 (stereo not drawn)
CDMF75 IC15, nM: 2500
//
compound: COC(=O)N[C@@H]1CCc2cc(-c3nc(C4CC4)no3)ccc21
CDMF75 IC15, nM: 500
//
compound: Cc1nc(-c2ccc3c(c2)CCC3NC(=O)Nc2ccncn2)no1 (stereo not drawn)
CDMF75 IC15, nM: 13100
//
compound: CCc1nc(-c2ccc3c(c2)CC[C@H]3NC(=O)c2ccc(=O)n(C)c2)no1
CDMF75 IC15, nM: 700
//
compound: Cc1nc(-c2ccc3c(c2)CC[C@H]3NC(=O)c2cccc([C@@H](C)O)c2)no1
CDMF75 IC15, nM: 1200
//
compound: CCc1nc(-c2ccc3c(c2)CC[C@H]3NC(=O)c2ccon2)no1 [Compound 585]
CDMF75 IC15, nM: 500
//
compound: [2H]C([2H])([2H])C(=O)N[C@@H]1COc2cc(-c3noc(CC)n3)ccc21
CDMF75 IC15, nM: 800

* * *

# targetEntity: bovine cardiac myofibrils (full-length cardiac myosin ATPase in the native sarcomere) (Bos taurus (Bovine))
# protocolSummary: Skinned bovine cardiac myofibril ATPase assay (PK/LDH-coupled)
# measurementConditions: Ca2+ activating to 75% of maximal rate, read-out: CDMF75 IC50
Friendly reminder: IC50 below 10 µM is Criterion met, at or above is Criterion not met.

compound: Cc1cc(C(=O)NC2COc3cc(-c4noc(C(F)F)n4)ccc32)n(C)n1 (centres unmarked)
cat: Criterion met
//
compound: Cc1nc(-c2ccc3c(c2)CCC3NC(=O)Nc2ccncc2)no1 (centres unmarked)
cat: Criterion not met
//
compound: Cc1ncc(C(=O)NC2CCc3cc(-c4noc(C(F)F)n4)ccc32)n1C (centres unmarked)
cat: Criterion met
//
compound: COCc1nc(-c2ccc3c(c2)CC[C@H]3NC(=O)c2cccc(CO)c2)no1 [Compound 669]
cat: Criterion met
//
compound: [2H]C([2H])([2H])c1nc(-c2ccc3c(c2)OC[C@H]3NC(=O)c2nnn(C)n2)no1
cat: Criterion not met
//
compound: CCc1nc(-c2ccc3c(c2)CC[C@H]3NC(=O)c2cocn2)no1
cat: Criterion not met
//
compound: CC(=O)N[C@@H]1CCc2cc(-c3noc(C(C)C)n3)ccc21
cat: Criterion not met
//
compound: CCc1nc(-c2ccc3c(c2)CC[C@H]3NC(=O)c2cnc(C)n2C)no1
cat: Criterion met
//
compound: CCc1nn(C)cc1C(=O)NC1CCc2cc(-c3noc(C(F)F)n3)ccc21 (centres unmarked)
cat: Criterion not met
//
compound: Cc1cccnc1C(=O)NC1CCc2cc(-c3noc(C(F)F)n3)ccc21 (centres unmarked)
cat: Criterion not met
//
compound: Cc1nc(-c2ccc3c(c2)CCC3NC(=O)c2ocnc2C)no1 (centres unmarked)
cat: Criterion met
//
compound: CCc1noc(-c2ccc3c(c2)CC[C@H]3NC(=O)c2ccnn2C)n1
cat: Criterion met
//
compound: COCc1nc(-c2ccc3c(c2)OCC3NC(=O)c2ccnn2C)no1 (centres unmarked)
cat: Criterion met
//
compound: CCc1nc(-c2ccc3c(c2)CC[C@H]3NC(=O)c2cn(C)nc2C)no1
cat: Criterion met
//
compound: CCc1nc(-c2ccc3c(c2)CC[C@H]3NC(=O)OCC2CN(C(N)=O)C2)no1
cat: Criterion met
//
compound: Cn1cc(C(=O)NC2COc3cc(-c4noc(C5CC5)n4)ccc32)cn1 (centres unmarked)
cat: Criterion met
//
compound: CCc1nc(-c2ccc3c(c2)CC[C@H]3NC(=O)c2ccc(=O)n(CCOC)c2)no1
cat: Criterion not met

* * *

# targetEntity: bovine cardiac myofibrils (full-length cardiac myosin ATPase in the native sarcomere) (Bos taurus (Bovine))
# protocolSummary: Skinned bovine cardiac myofibril ATPase assay (PK/LDH-coupled)
# Format: biochemical
# measurementConditions: Ca2+ activating to 75% of maximal rate, concentration giving 15% inhibition
Recorded CDMF75 IC15, one value per entry.
outcomeMeasure: CDMF75 IC15

compound: Cn1cc(C(=O)N[C@@H]2CCc3cc(-c4nc(C5CC5)no4)ccc32)cn1
outcomeMeasure: CDMF75 IC15
reported: 1.5 µM
//
compound: Cc1nc(-c2ccc3c(c2)OC[C@H]3NC(=O)c2ocnc2C)no1
outcomeMeasure: CDMF75 IC15
reported: 0.5 µM
//
compound: C[C@H](CO)c1nc(-c2ccc3c(c2)CC[C@H]3NC(=O)c2ccnn2C)no1
outcomeMeasure: CDMF75 IC15
reported: 7.4 µM
//
compound: Cc1nn(CCO)cc1C(=O)N[C@@H]1CCc2cc(-c3noc(C(F)F)n3)ccc21
outcomeMeasure: CDMF75 IC15
reported: 0.9 µM
//
compound: COc1cc(C(=O)N[C@@H]2CCc3cc(-c4noc(C(F)F)n4)ccc32)ccn1
outcomeMeasure: CDMF75 IC15
reported: 1.1 µM
//
compound: CCc1nc(-c2ccc3c(c2)CC[C@H]3NC(=O)c2cnn(CC(O)CO)c2)no1 (some centres unmarked) [Compound 553]
outcomeMeasure: CDMF75 IC15
reported: 1.2 µM
//
compound: CCc1nc(-c2ccc3c(c2)CC[C@H]3NC(=O)c2cnn(CC(O)CO)c2)no1 (some centres unmarked) [Compound 485]
outcomeMeasure: CDMF75 IC15
reported: 1.2 µM
//
compound: Cc1nc(-c2ccc3c(c2)OCC3NC(=O)c2ccccc2)no1 (centres unmarked)
outcomeMeasure: CDMF75 IC15
reported: 0.6 µM
//
compound: Cc1nn(C)cc1C(=O)N[C@@H]1CCc2cc(-c3noc(C4CCC4)n3)ccc21
outcomeMeasure: CDMF75 IC15
reported: 0.3 µM
//
compound: CCc1nc(-c2ccc3c(c2)CC[C@H]3NC(=O)c2cccc(CO)c2)no1
outcomeMeasure: CDMF75 IC15
reported: 0.2 µM
//
compound: CCc1nn(C)cc1C(=O)NC1CCc2cc(-c3noc(C(F)F)n3)ccc21 (centres unmarked)
outcomeMeasure: CDMF75 IC15
reported: 3.9 µM
//
compound: CCc1nc(-c2ccc3c(c2)CCC[C@@H]3NC(=O)c2cnn(C)c2)no1
outcomeMeasure: CDMF75 IC15
reported: 39.2 µM
//
compound: CCc1nc(-c2ccc3c(c2)CC[C@H]3NC(=O)c2cccc(CO)c2F)no1
outcomeMeasure: CDMF75 IC15
reported: 0.6 µM
//
compound: CCc1nc(-c2ccc3c(c2)CCCC3NC(=O)c2ccnn2C)no1 (centres unmarked)
outcomeMeasure: CDMF75 IC15
reported: 0.7 µM
//
compound: CCc1cc(-c2ccc3c(c2)OC[C@H]3NC(=O)c2cn[nH]c2C)no1
outcomeMeasure: CDMF75 IC15
reported: 0.3 µM
//
compound: CCc1nc(-c2ccc3c(c2)CC[C@H]3NC(=O)c2cnco2)no1 [Compound 583]
outcomeMeasure: CDMF75 IC15
reported: 0.4 µM
//
compound: CCc1nc(-c2ccc3c(c2)CC[C@H]3NC(=O)c2ccc(=O)n(CCOC)c2)no1
outcomeMeasure: CDMF75 IC15
reported: 4.6 µM
//
compound: Cc1cc(-c2ccc3c(c2)CC[C@H]3NC(=O)c2cnn(C)c2)no1
outcomeMeasure: CDMF75 IC15
reported: 1 µM
//
compound: Cn1nccc1C(=O)N[C@@H]1CCc2cc(-c3noc(C(F)F)n3)ccc21
outcomeMeasure: CDMF75 IC15
reported: 0.3 µM
//
compound: O=C(N[C@@H]1CCc2cc(-c3noc(C4CCC4)n3)ccc21)C(F)F
outcomeMeasure: CDMF75 IC15
reported: 2.7 µM
//
compound: CC(=O)N[C@@H]1CCc2cc(-c3noc(C(C)C)n3)ccc21
outcomeMeasure: CDMF75 IC15
reported: 3.1 µM
//
compound: Cc1nc(-c2ccc3c(c2)CCC3NC(=O)c2oc(C)nc2C)no1 (centres unmarked)
outcomeMeasure: CDMF75 IC15
reported: 2.5 µM
//
compound: Cn1nccc1C(=O)N[C@@H]1CCc2cc(-c3ccnnc3)ccc21
outcomeMeasure: CDMF75 IC15
reported: 39.2 µM
//
compound: [2H]C([2H])([2H])c1nc(-c2ccc3c(c2)OC[C@H]3NC(=O)c2cn(C)nc2C)no1
outcomeMeasure: CDMF75 IC15
reported: 0.9 µM
//
compound: Cc1cc(C(=O)NC2COc3cc(-c4noc(C)n4)ccc32)n(C)n1 (centres unmarked)
outcomeMeasure: CDMF75 IC15
reported: 1.0 µM
//
compound: CCc1nc(-c2ccc3c(c2)CC[C@H]3NC(=O)c2cn(CCOC)nc2C)no1
outcomeMeasure: CDMF75 IC15
reported: 0.8 µM
//
compound: CCc1nc(-c2ccc3c(c2)OC[C@H]3NC(=O)NCCO)no1
outcomeMeasure: CDMF75 IC15
reported: 0.8 µM
//
compound: Cc1nc(-c2ccc3c(c2)CCC3NC(=O)c2conc2C)no1 (centres unmarked)
outcomeMeasure: CDMF75 IC15
reported: 1.0 µM
//
compound: CCc1nc(-c2ccc3c(c2)CC[C@H]3NC(=O)c2ncoc2C)no1
outcomeMeasure: CDMF75 IC15
reported: 0.9 µM
